// provenance: PubChem BioAssay (NCI)

# Lookup of reported TGI keyed by entry
Test system: MOLT-4 leukemia
Assay: NCI tumour cell line growth inhibition, 48 h

INSERT INTO measurements (structure_smiles, target_desc, measure, value) VALUES
  ('Cn1c(=S)c2[nH]c(SCCN3CCCC3)nc2n(C)c1=O', 'MOLT-4 leukemia', 'TGI', '> 100 µM'),
  ('Cc1cc(C)c(S(=O)(=O)ONC(=O)OC(C)(C)C)c(C)c1', 'MOLT-4 leukemia', 'TGI', '> 100 µM');

Now turn to the next compound.
Return reported TGI; argument: COc1ccc(-c2c(-c3cc(OC)c4c(c3)OCO4)noc2N)cc1
17.5 µM

* * *

Test system: MDA-MB-231 breast
Assay: NCI tumour cell line growth inhibition, 48 h
Measure: TGI (µM)
Your answer should be a plain number; it is taken to be in µM.

Given COc1cc(O)c2c(=O)cc(C3(O)C=CC(=O)C=C3)oc2c1 , state its recorded TGI.
0.789

Requested field: TGI. Item: C[C@H]1C(Oc2ccc(O)cc2)OC2OC3(C)CCC4[C@H](C)CCC1C24OO3 (stereo partly specified)
30.9

Need TGI, item O=C(CCCCCCSc1nc(-c2ccc(Cl)cc2)cc(-c2ccc(Cl)cc2)n1)NO
13.3

Could you share which TGI value was measured for O=C(/C=C/c1ccc(O)c(O)c1O)OCCc1ccccc1 ?
47.3

May I ask what TGI has been recorded for NC(=O)NC(=O)c1cccc(NC(=O)CBr)c1 ?
0.951

I have this molecule here, CC1=C[S+](c2ccccc2)c2cccc3cc4ccccc4c1c23 (stereo unspecified) , and I need its recorded TGI.
4.48

* * *

Tested on: SR leukemia
Assay: NCI tumour cell line growth inhibition, 48 h
Measure: TGI

INSERT INTO measurements (compound, value) VALUES
  ('COC(OC)[C@@H](C)[C@H](O)[C@](C)(O)C1OC(C)(C)OC(C(C)C=C(C)C)C1C (stereo not given in full)', '> 100 µM'),
  ('Cn1ncnc1CCc1ccccc1', '> 100 µM'),
  ('C=C1C(=O)O[C@H]2[C@H]1CC(=O)/C(C)=C/CC[C@@]1(C)O[C@@H]21', '7.74 µM');

Entry C=C1C(=O)O[C@H]2[C@H]1CC/C(COC(=O)c1ccc(C#N)cc1)=C\CC[C@@]1(C)O[C@@H]21 : reported TGI = ?
> 100 µM

Dear colleague, I am looking for the recorded TGI of the following compound: NC(N)=NCCCC(NC(=O)OCCCCCCn1ccc(N)nc1=O)C(=O)O (stereo not given)
> 100 µM

Which TGI is reported for this compound? c1ccc(COCC2OC3c4ccccc4COC3C2OCc2ccccc2)cc1 (stereo not given)
> 100 µM

Report TGI for O=C(/C=C/c1ccc(O)c(O)c1O)OCCc1ccccc1 please.
40.6 µM

Consider the compound shown here: C=C(C)[C@@H]1CC[C@]2(COC3CCCCO3)CC[C@]3(C)[C@H](CC[C@@H]4[C@@]5(C)C=C(C=O)C(=O)C(C)(C)[C@@H]5CC[C@]43C)[C@@H]12 (stereo not given in full) What is its recorded TGI?
6.78 µM

# query: TGI of entry CCCCC(=O)Oc1ccc2c(C)cc(=O)oc2c1
> 100 µM

Request the reported TGI associated with COc1c(O)c2c(=O)cc(OC)c3c4c(OC)cc(=O)c5c(O)c(OC)c6c(c(c1C(C(C)=O)C6C(C)O)c23)c54 (stereo not given)
1.93 µM

Suppose we examine the compound COc1cc2cc(C(=O)N3CC(CCl)c4ccccc43)[nH]c2c(OC)c1OC (stereo not given) ; what TGI value has been reported?
> 100 µM

Recorded TGI of O=C=NCCCCCCN1C(=O)N2C(c3ccccc3)N(CCCCCCN=C=O)C(=O)N2C1c1ccccc1 (stereo not given) , please.
> 100 µM

// TGI lookup, key: N#Cc1ccc(C(c2ccc(C#N)cc2)n2cncn2)cc1
> 5000 µM

What value of TGI has been reported for the following compound? O=C(NO)C(=O)Nc1ccc(Cl)cc1[N+](=O)[O-]
> 100 µM

I would be grateful if you could share the reported TGI for CN(C[C@@H]1COCCO1)S(=O)(=O)Nc1ccc2ccc3ncc(-c4cnn(C)c4)cc3c(=O)c2c1 .
> 100 µM

# input compound: CC/C(C)=C1\OC(=O)C(C)C(O)C(Cc2cccnc2)NC(=O)C(NC(=O)c2ncccc2O)C(C)OC1=O (stereo not given) ; wanted: its TGI
> 100 µM

For COc1cc2c(cc1OC)C(=O)C(C1=C(SC(=N)N)C(=O)c3cc(OC)c(OC)cc31)C2 (stereo not given) , what is its reported TGI?
> 100 µM

Quick one: TGI of COc1ccc(-c2cc(-c3cc(OC)c(OC)c(OC)c3)c(C#N)c(N3CCOCC3)n2)cc1O ?
> 100 µM

Which value of TGI has been reported for CCCCCCCCCCCCN(O)C(=O)c1ccccc1 in the records?
> 100 µM

Record request: TGI value, item CC(C)C1OC(/C=C/c2ccccc2)OCC1(C)C (stereo not given)
> 100 µM
